From: PubChem BioAssay (NCI)

assay: NCI Yeast Anticancer Drug Screen. Data for the mec2-1 strain (AID 157); conditions: S. cerevisiae mec2-1 strain, at 50.0 µM, active compounds read high
This is part of a sample that, as a whole, favours compounds with a hit. Of some 79,000 tested, about 15% had one in any assay.
growth inhibition reference
parameterMeasured: growth inhibition (%)

# compound, valueMeasured
data = [
    ("CCOC(=O)c1cn2ccccc2c1C(=O)OCC", -3.1),
    ("CC(=O)Oc1cc(O)oc(=O)c1", -14.8),
    ("CCCCCCC(=O)OCC", -3.4),
    ("CC1CCOC(C)(Cc2ccccc2)O1 (centres undefined)", -3.05),
]

====

experiment: NCI Yeast Anticancer Drug Screen. Data for the mec2-1 strain (AID 157); conditions: S. cerevisiae mec2-1 strain, at 50.0 µM, active compounds read high
The panel holds about 79,000 compounds, 15% with a hit somewhere; the sample as a whole holds those more often.
parameterMeasured: growth inhibition (%)

# compound, valueMeasured
records = [
    ("CC(O)CNc1ncnc2c1cnn2C (stereo not given)", -24.9),
    ("CN(N=O)c1c([N+](=O)[O-])cc2c(c1[N+](=O)[O-])Cc1ccccc1-2", -4.3),
    ("CSC(SC)=C(C(=O)c1ccc(Cl)cc1)n1c(=O)sc2cc(Br)ccc21", 2.45),
    ("O=c1[nH]c(C(Cl)(Cl)Cl)nc2ccc(Cl)cc12", 8.6),
    ("COc1ccc(-c2cc(-c3ccccc3)nc(-c3cccc([N+](=O)[O-])c3)c2)cc1", -4.4),
]

====

assay: NCI Yeast Anticancer Drug Screen. Data for the rad50 strain (AID 155);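 note: 0% = growth of vehicle-only cultures of the same strain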; details: S. cerevisiae rad50 strain growth inhibition; at 50.0 µM; active compounds read high
The panel holds about 79,000 compounds, 15% with a hit somewhere; the sample as a whole holds those more often.
parameterMeasured: growth inhibition (%)

# compound, parameterMeasured, valueMeasured
data = [
    ("Cc1cc(=O)[nH]c2c(C)cc(Cl)cc12", "growth inhibition", 9.95),
    ("Cc1c2cccc(Br)c2c[n+]2ccccc12", "growth inhibition", 20.9),
    ("CC(SC(=S)N1CCOCC1)C(=O)O (stereo unspecified)", "growth inhibition", 2.65),
    ("COc1cc(C(c2cc3c(cc2OC(C)=O)OCO3)C(C(C)=O)C(C)=O)cc(OC)c1OC (stereo unspecified)", "growth inhibition", 3.55),
    ("CCN(CC)CCCC(C)=O", "growth inhibition", 9.25),
    ("CN1C(=O)c2c(ccc3c2OCO3)C2C(O)Cc3cc4c(cc3C21)OCO4 (stereo unspecified)", "growth inhibition", 6.85),
]

====

Reported values of growth inhibition for individual entries
experiment: NCI Yeast Anticancer Drug Screen. Data for the mlh1 rad18 strain (AID 175); conditions: S. cerevisiae mlh1 rad18 strain growth inhibition; at 50.0 µM; active compounds read high
The panel holds about 79,000 compounds, 15% with a hit somewhere; the sample as a whole holds those more often.
parameterMeasured: growth inhibition (%)

# compound, valueMeasured
rows = [
    ("COCCOC(=O)Nc1c(Cl)cccc1Cl", -8.2),
    ("CNCc1ccccc1", -3.4),
    ("C=C1C2CCC3(CCC4C5(C)CCCC4(C=NC5)C3C2)C1O (configuration not stated)", 1.6),
    ("CCOC(=O)C1CCC2c3[nH]c4ccccc4c3CCN2C1=O (configuration not stated)", -20.9),
    ("CSC(N)=NC1CCCCC1", 6.15),
    ("CC(=O)/C=C\\c1cc(C)ccc1O", 12.6),
    ("O=c1[nH]c(=O)n(C2CC(O)C(CO)O2)c2ncncc12 (configuration not stated)", -57.1),
    ("CN(C)CCN(C)C(=N)N", -10.9),
    ("CCN(CC)C(=O)Cn1c(C)cc2ccccc21", -13.6),
    ("CCOC(=O)c1cc2c(nc1C)-c1cc(Cl)ccc1OC2OCc1ccccc1 (configuration not stated)", 4.3),
    ("N#CCc1ccccc1S(=O)(=O)O", 0.25),
    ("Cc1cc2c(c(C(=O)NCCC(=O)N[C@@H](C)C(=O)OCc3ccccc3)c1)Oc1c(cc(C)cc1C(=O)NCCC(=O)N[C@@H](C)C(=O)OCc1ccccc1)S2", 27.1),
    ("CNC(=O)c1ccccc1CC1(O)CCCC1", -25.1),
    ("CCC(=O)N1CCN(C(=O)CC)c2ccccc21", 6.65),
    ("CN(C(=O)Sc1ccc([N+](=O)[O-])cc1)c1ccc([N+](=O)[O-])cc1", 21.3),
    ("COc1ccc(N=Nc2c(C)nc(N)nc2C)cc1", 12.6),
    ("Cc1nn(C(=O)Cc2ccccc2)c2c1C(c1ccc([N+](=O)[O-])cc1)SC(N)=N2 (configuration not stated)", 9.75),
]
